Item-by-item account of IC50
System: BLT1 and BLT2 receptors
Assay: Ca2+ Flux Assay for LTB4 Antagonist Assay
Type: cell-based, Human
Details: inhibition of LTB4-induced Ca2+ flux (FLIPR), Retinoic Acid induced HL-60 cells endogenously expressing BLT1 and BLT2; read-out: IC50
Experimental: Ca^2+ Flux Assay for LTB4 Antagonist Assay Seventy two hours prior to experiment cells are counted using ViaCount reagent, centrifuged and resuspended at 2.0×10^5 cells /ml density with the complete growth media containing 1 μM Retinoic Acid (Sigma). On a day of the experiment loading buffer (Calcium-3 Assay Kit, Molecular Devices) was prepared by dissolving the contents of one vial (Express Kit) into 500 ml Hank's Balanced Salt Solution containing 20 mM HEPES and 5 mM probenecid. […]
Number only, in nM; omit the unit.

- O=C(O)CCCOc1cccc(CCCCCCOc2cc(-c3ccncc3)cc(-c3ccncc3)c2)c1CCC(=O)O: 0.07

Input line: Notebook entry, BLT1 and BLT2 receptors assay: IC50 of `Cc1cc(C(F)(F)F)c(-c2cc(OCCCCCCc3cccc(OCCCC(=O)O)c3CCC(=O)O)cc(-c3ccsc3)c2)c(=O)n1C` = ?
Output line: 99.4

Input line: Notebook entry, BLT1 and BLT2 receptors assay: IC50 of `CN(C)c1ccc(-c2cc(OCCCCCCc3cccc(OCCCC(=O)O)c3CCC(=O)O)cc(-c3ccc(Cl)c(F)c3)c2)cc1` = ?
Output line: 59.8

Input line: Notebook entry, BLT1 and BLT2 receptors assay: IC50 of `O=C(O)CCCOc1cccc(CCCCCCNc2cc(-c3ccsc3)cc(-c3ccsc3)c2)c1CCC(=O)O` = ?
Output line: 99.1

Hey, just so you know, these numbers are from patent US8093385B2.
